What enrichment ratio was measured for each of the following?
B1: PhoQ; a variant is named by its letters at X, in order, P23837 (parent)
chain: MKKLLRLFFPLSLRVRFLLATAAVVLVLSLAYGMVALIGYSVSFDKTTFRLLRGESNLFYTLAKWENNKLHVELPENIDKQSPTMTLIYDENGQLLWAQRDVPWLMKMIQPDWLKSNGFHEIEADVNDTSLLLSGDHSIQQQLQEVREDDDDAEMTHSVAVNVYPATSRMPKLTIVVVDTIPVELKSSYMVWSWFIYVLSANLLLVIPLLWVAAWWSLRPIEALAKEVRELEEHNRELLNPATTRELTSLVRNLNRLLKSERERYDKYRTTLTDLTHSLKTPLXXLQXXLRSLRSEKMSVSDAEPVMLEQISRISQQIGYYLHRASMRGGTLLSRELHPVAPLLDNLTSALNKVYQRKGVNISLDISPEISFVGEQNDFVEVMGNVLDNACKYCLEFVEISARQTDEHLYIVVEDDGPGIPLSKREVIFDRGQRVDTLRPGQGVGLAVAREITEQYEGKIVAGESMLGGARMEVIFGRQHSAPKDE

variants of: B1; test: enrichment ratio after two sorts for PhoP signalling (ratio (wild type AVST 3.29)); higher = more functional; details: with PhoP (E. coli)
Over roughly 140,000 sequences, “enrichment ratio after two sorts for PhoP signalling” has its median near 0; the highest 2% begin near 11. This is one part of a sample in which the highest values are shown more often than they occur.

Look over these answered cases.
• RQSW = ≤ 0.25
• FSLQ = 11.8
• QEAS = 10.1
• SDAL = ≤ 0.25
• FCLQ = 6.86
• ESWQ = ≤ 0.25

Record enrichment ratio per entry; entries follow.
1. DMWC
2. ENVM
3. QEAD
4. TEAD
5. AKAA

Response line:
1: ≤ 0.25; 2: ≤ 0.25; 3: ≤ 0.25; 4: 16.8; 5: 4.65
